Listed here: items and their measured viability, T/C.
System: 276233-004-R-J1-PDC complex spheroid viability
Experiment: Anticancer human tumor 276233-004-R-J1-PDC patient-derived colon adenocarcinoma cell line growth inhibition [GQUAD]
Details: second compound 1 µM; first compound 0.316 µM; stronger effect = lower value

Known results for molecules:
- molecule: "CC[C@@]1(O)C(=O)OCc2c1cc1n(c2=O)Cc2cc3c(CN(C)C)c(O)ccc3nc2-1 + Cc1[nH]c2ccc(F)cc2c1-c1nc2c3cccnc3c3ncccc3c2[nH]1"
  viability, T/C: "77.7%"
- molecule: "O=C(NO)c1cnc(N2CCN(S(=O)(=O)c3ccc4ccccc4c3)CC2)nc1 + Cc1cnc(CNC(=O)c2c(=O)c3ccc(N4CCCN(C)CC4)nc3n3c2sc2ccccc23)cn1"
  viability, T/C: "30.5%"

*Q* Could you please provide reported viability, T/C for CC1COCCN1c1cc(C2(O)CC3CCC(C2)O3)c2cnn(-c3ccn[nH]3)c2n1 (stereo not given) + Cc1cnc(CNC(=O)c2c(=O)c3ccc(N4CCCN(C)CC4)nc3n3c2sc2ccccc23)cn1 ? Thanks!
*A* 50.4%

*Q* Could you please provide reported viability, T/C for C#Cc1c(F)ccc2cc(O)cc(-c3ncc4c(N5CC6CCC(C5)N6)nc(OCC56CCCN5CC(F)C6)nc4c3F)c12 (stereo not given) + CN(C)c1ccc(Nc2c3ccc(NC(=O)CCN4CCCC4)cc3nc3cc(NC(=O)CCN4CCCC4)ccc23)cc1 ? Thanks!
*A* 54.9%

*Q* Could you please provide reported viability, T/C for Cc1cccc(N(C)C(=O)C2C(O)CCN2c2nc(C)cc(C(F)(F)F)c2C#N)c1 (stereo not given) + Cc1cnc(CNC(=O)c2c(=O)c3ccc(N4CCCN(C)CC4)nc3n3c2sc2ccccc23)cn1 ? Thanks!
*A* 85.6%

---

Tested on: 276233-004-R-J1-PDC complex spheroid viability
Test: Anticancer human tumor 276233-004-R-J1-PDC cell line growth inhibition [GQUAD];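 also: spheroids exposed to drugs for seven days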;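 as to viability, T/C: 100% = DMSO vehicle control viability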
Conditions: second compound 1 µM; first compound 0.316 µM; stronger effect = lower value
quantity: viability, T/C (%)
Numbers only here, please. The scale is %.

- molecule: "COc1ncnc(C2CC2)c1-c1ncc2cnn(Cc3ccc(-c4nc(C(F)(F)F)cn4C(C)C)cc3)c2n1 + Cc1[nH]c2ccc(F)cc2c1-c1nc2c3cccnc3c3ncccc3c2[nH]1"
  subject-of-test: "276233-004-R-J1-PDC complex spheroid viability"
  viability, T/C, %: 57.8
- molecule: "Cc1[nH]c2ccccc2c1CCNCc1ccc(/C=C/C(=O)NO)cc1 + Cc1cnc(CNC(=O)c2c(=O)c3ccc(N4CCCN(C)CC4)nc3n3c2sc2ccccc23)cn1"
  subject-of-test: "276233-004-R-J1-PDC complex spheroid viability"
  viability, T/C, %: 19.1

Moving on to the next molecule.
*Q* Could you please provide reported viability, T/C for COc1cccc2c1C(=O)c1c(O)c3c(c(O)c1C2=O)CC(O)(C(=O)CO)CC3OC1CC(N)C(O)C(C)O1 (stereo not drawn) + Cc1cnc(CNC(=O)c2c(=O)c3ccc(N4CCCN(C)CC4)nc3n3c2sc2ccccc23)cn1 ? Thanks!
*A* 83.1

---

Test system: 276233-004-R-J1-PDC complex spheroid viability
Assay: Anticancer human tumor 276233-004-R-J1-PDC cell line growth inhibition [GQUAD];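 also: spheroids exposed to drugs for seven days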
Conditions: curve of first compound; second compound 1 µM
quantity: IC50 (nM)
Numbers only here, please. The scale is nM.

Known results for molecules:
- molecule: "C#Cc1c(F)ccc2cc(O)cc(-c3ncc4c(N5CC6CCC(C5)N6)nc(OCC56CCCN5CC(F)C6)nc4c3F)c12 (stereo not given) + Cc1[nH]c2ccc(F)cc2c1-c1nc2c3cccnc3c3ncccc3c2[nH]1"
  endpoint-value: 208
- molecule: "Cc1[nH]c2ccccc2c1CCNCc1ccc(/C=C/C(=O)NO)cc1 + Cc1cnc(CNC(=O)c2c(=O)c3ccc(N4CCCN(C)CC4)nc3n3c2sc2ccccc23)cn1"
  endpoint-value: 62.4
- molecule: "COc1cccc2c1C(=O)c1c(O)c3c(c(O)c1C2=O)CC(O)(C(=O)CO)CC3OC1CC(N)C(O)C(C)O1 (stereo not given) + Cc1cnc(CNC(=O)c2c(=O)c3ccc(N4CCCN(C)CC4)nc3n3c2sc2ccccc23)cn1"
  endpoint-value: 2330

*Q* Could you please provide reported IC50 for O=C(NO)c1cnc(N2CCN(S(=O)(=O)c3ccc4ccccc4c3)CC2)nc1 + Cc1cnc(CNC(=O)c2c(=O)c3ccc(N4CCCN(C)CC4)nc3n3c2sc2ccccc23)cn1 ? Thanks!
*A* 195
